- assay.summary: NCI Yeast Anticancer Drug Screen. Data for the rad18 strain (AID 177)
- test.context: S. cerevisiae rad18 mutant growth inhibition; at 100.0 µM; active compounds read high
About 79,000 compounds went through this panel and 15% of them were active in at least one assay; those are over-represented in the sample as a whole.
In this scheme, each record receives a class according to its growth inhibition; the ranges are lower: < 50%; middle: ≥ 50% and < 90%; upper: ≥ 90%

[[record]]
molecule = "O=C(NC(N1CCN(c2cc3c(cc2F)c(=O)c(C(=O)O)cn3C2CC2)CC1)(C(F)(F)F)C(F)(F)F)c1ccccc1"
class_label = "middle"

[[record]]
molecule = "O=C1c2ccccc2N2OC3(N4CCCC4)CCCCC3C12c1ccccc1 (configuration not stated)"
class_label = "upper"

[[record]]
molecule = "CC1CN(/N=C\\c2ccc([N+](=O)[O-])o2)C(=O)O1 (configuration not stated)"
class_label = "upper"

[[record]]
molecule = "O=C(O)/C=C\\C(=O)Nc1ccc2c(c1)Cc1cc(Cl)ccc1-2"
class_label = "middle"

[[record]]
molecule = "c1ccc2nc3c(nc2c1)sc1ccccc13"
class_label = "lower"

[[record]]
molecule = "O=[N+]([O-])c1ccc(/C=C\\c2ccc3c(c2)OCO3)c([N+](=O)[O-])c1"
class_label = "middle"

[[record]]
molecule = "CCCCCc1c(CCCC)c(=O)[nH]c2cc(CNCC(OC)OC)ccc12"
class_label = "upper"

[[record]]
molecule = "COc1ccc(-c2cc(-c3cc(C)cc(Cl)c3O)nc3[nH]c(=S)[nH]c(=S)c23)cc1"
class_label = "middle"

[[record]]
molecule = "CC(C(=O)N1C(=O)N(C(=O)C(C)C(O)c2ccccc2)C2CCCCC21)C(O)c1ccccc1 (configuration not stated)"
class_label = "lower"

[[record]]
molecule = "CC1=CC(=C(c2ccc(N)c(C)c2)c2ccc(N)c(C)c2)C=CC1=N"
class_label = "upper"

[[record]]
molecule = "CCN(CC)CCCNc1ccc([N+](=O)[O-])c2nc3ccc(OC)cc3c(NCCCN(CC)CC)c12"
class_label = "lower"

[[record]]
molecule = "O=C1C[C@H]2[C@H](c3ccc(Br)cc3)[C@H]3C(=O)c4ccccc4NC(=O)[C@@H]3[C@@]2(O)c2ccccc2N1"
class_label = "lower"

[[record]]
molecule = "CCCNC(=O)OCc1c(COC(=O)NCCC)c(-c2ccc(Cl)c(Cl)c2)n2c1CCC2"
class_label = "middle"

[[record]]
molecule = "CC(C)OC(=O)NNc1cccc(Cl)c1"
class_label = "upper"

[[record]]
molecule = "O=C1c2ccccc2-c2ccc(N=Cc3ccccc3)cc21"
class_label = "middle"

[[record]]
molecule = "O=C1C=CC(=Nc2cccc3c2-c2ccccc2C3=O)O1"
class_label = "upper"

[[record]]
molecule = "COc1ccc2c(c1)CCCC(Br)C2=O (configuration not stated)"
class_label = "upper"

[[record]]
molecule = "Cc1ccc(NC(=O)CCC(=O)C(C)C(=O)c2ccccc2)c(C)c1 (configuration not stated)"
class_label = "lower"

[[record]]
molecule = "Cc1nc2sc3c(c2c(=O)o1)CCCC3"
class_label = "lower"

